# assay_text: Rough solubility of the amorphous phosphate in solvents
# Assay type: physicochemical
# test_settings: IPA, organic solvent or mixture, thermodynamic from solid
assay_endpoint: solubility

Please fill in: solubility reported for "C[C@@H]1c2cnc(C(F)(F)F)n2CCN1C(=O)C[C@H](N)Cc1cc(F)c(F)cc1F" = 38.3 to 57.5 mg/mL

---

# assay_text: Rough solubility of the amorphous phosphate in solvents
# Format: physicochemical
# test_settings: CHCl3, organic solvent or mixture, thermodynamic from solid
assay_endpoint: solubility

Please fill in: solubility reported for "C[C@@H]1c2cnc(C(F)(F)F)n2CCN1C(=O)C[C@H](N)Cc1cc(F)c(F)cc1F" = < 1300 µg/mL

---

# assay_text: PK/PD experiment of ICR mice: plasma concentration
# Type: in vivo, CD-1 (ICR) mice
# test_settings: CD-1 (ICR), mouse, oral dose 1 mg/kg, 1.33 hours
assay_endpoint: concentration at 1.33 h (ng/mL)
// units = ng/mL; emit number, no label

Please fill in: concentration at 1.33 h reported for C[C@@H]1c2cnc(C(F)(F)F)n2CCN1C(=O)C[C@H](N)Cc1cc(F)c(F)cc1F [DPPIV-P1] = 71.9

---

# assay_text: PK/PD experiment of ICR mice: plasma concentration
# Type: in vivo, CD-1 (ICR) mice
# test_settings: CD-1 (ICR), mouse, oral dose 0.1 mg/kg, 1 hour
assay_endpoint: concentration at 1 h (ng/mL)
// units = ng/mL; emit number, no label

Please fill in: concentration at 1 h reported for C[C@@H]1c2cnc(C(F)(F)F)n2CCN1C(=O)C[C@H](N)Cc1cc(F)c(F)cc1F [DPPIV-P1] = 8.28

---

# assay_text: PK/PD experiment of ICR mice: plasma concentration
# Assay type: in vivo, CD-1 (ICR) mice
# test_settings: CD-1 (ICR), mouse, oral dose 1 mg/kg, read-out: Drug exposure (AUCeff0-3 h)
assay_endpoint: AUC (ng·h/mL)
// units = ng·h/mL; emit number, no label

Please fill in: AUC reported for C[C@@H]1c2cnc(C(F)(F)F)n2CCN1C(=O)C[C@H](N)Cc1cc(F)c(F)cc1F [DPPIV-P1] = 162

---

# assay_text: Rough solubility of the amorphous phosphate in solvents
# Type: physicochemical
# test_settings: NMP, organic solvent or mixture, thermodynamic from solid
assay_endpoint: solubility

Please fill in: solubility reported for C[C@@H]1c2cnc(C(F)(F)F)n2CCN1C(=O)C[C@H](N)Cc1cc(F)c(F)cc1F [Example 1] = 20 to 40 mg/mL

---

# assay_text: PK/PD experiment of ICR mice: plasma concentration
# Format: in vivo, CD-1 (ICR) mice
# test_settings: CD-1 (ICR), mouse, oral dose 0.3 mg/kg, 1 hour
assay_endpoint: concentration at 1 h (ng/mL)
// units = ng/mL; emit number, no label

Please fill in: concentration at 1 h reported for C[C@@H]1c2cnc(C(F)(F)F)n2CCN1C(=O)C[C@H](N)Cc1cc(F)c(F)cc1F [DPPIV-P1] = 26.4

---

# assay_text: Rough solubility of the amorphous phosphate in solvents
# Type: physicochemical
# test_settings: MTBE, organic solvent or mixture, thermodynamic from solid
assay_endpoint: solubility

Please fill in: solubility reported for "C[C@@H]1c2cnc(C(F)(F)F)n2CCN1C(=O)C[C@H](N)Cc1cc(F)c(F)cc1F" = < 0.9 mg/mL

---

# assay_text: PK/PD experiment of ICR mice: plasma concentration
# Assay type: in vivo, CD-1 (ICR) mice
# test_settings: CD-1 (ICR), mouse, oral dose 0.3 mg/kg, read-out: Drug exposure (AUCeff0-3 h)
assay_endpoint: AUC (ng·h/mL)
// units = ng·h/mL; emit number, no label

Please fill in: AUC reported for C[C@@H]1c2cnc(C(F)(F)F)n2CCN1C(=O)C[C@H](N)Cc1cc(F)c(F)cc1F [DPPIV-P1] = 52.6
